Quick reference: glycan array binding signal (z-score) of the listed items.
# TESTED_SYSTEM: Gal(b1-3)GlcNAc(b1-2)Man(a1-3)[Gal(b1-3)GlcNAc(b1-2)Man(a1-6)]Man(b1-4)GlcNAc(b1-4)GlcNAc
# TEST: glycan array binding signal (z-score within array); higher = stronger binding
# APPLIED_CONDITIONS: glycan notation: IUPAC condensed, linker removed
The full list was thinned out, with the strongest signals kept by preference.

BINDER: MpAFP NterminalRI GFP (Marinomonas primoryensis) (protein) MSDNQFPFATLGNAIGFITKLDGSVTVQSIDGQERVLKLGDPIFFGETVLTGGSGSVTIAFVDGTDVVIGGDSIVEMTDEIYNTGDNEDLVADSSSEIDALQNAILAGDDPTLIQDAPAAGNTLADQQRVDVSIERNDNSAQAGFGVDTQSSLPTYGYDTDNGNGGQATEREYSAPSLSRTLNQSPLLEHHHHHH
glycan array binding signal (z-score): -0.119

Problem: Identify the reported glycan array binding signal (z-score) for the following entry. LBL-152 (Laetiporus bicolor), B0D650 (protein) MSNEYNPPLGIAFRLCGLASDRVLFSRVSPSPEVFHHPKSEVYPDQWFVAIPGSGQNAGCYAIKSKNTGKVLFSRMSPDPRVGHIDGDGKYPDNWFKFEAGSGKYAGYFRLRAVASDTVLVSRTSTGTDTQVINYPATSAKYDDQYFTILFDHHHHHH
Solution: -0.154

Problem: Identify the reported glycan array binding signal (z-score) for the following entry. GNL (Galanthus nivalis) (protein) MGHHHHHHHHYGTLENGHWLMVGMSIFSKDRTVELRMQDDGKLAIYYNDHCAWQSTAQQVNNAKGAVMQGDGNFCIYDKNGKATWHTNTAAPSGDSHTFVSVQDDGNLVLYKNNGATPIWSSKSNK
Solution: 4.54

Cited source for all entries: the supplement of paper PMC8728848
